Item-by-item account of relative viability
- Test system: NCI-H1793
- Run description: relative viability (nuclei count vs DMSO), 5 days (fraction); higher = more cells survive
- Measurement conditions: first compound 0.08 µM

Examples from the recorded data:
Compound	relative viability
COc1nc(C)cnc1NS(=O)(=O)c1cccnc1-c1ccc(-c2nnco2)cc1 [Zibotentan] + COc1cccc2cc(-c3nc([C@H]4CC[C@H](C(=O)O)CC4)n4ncnc(N)c34)[nH]c12 [OSI-027] (partner 0.5 µM)	0.351
O=c1cc(-c2cccc3c2Sc2ccccc2S3)oc(N2CCOCC2)c1 + CS(=O)(=O)CCNCc1ccc(-c2ccc3ncnc(Nc4ccc(OCc5cccc(F)c5)c(Cl)c4)c3c2)o1 [Lapatinib] (partner 2 µM)	0.641
O=c1cc(-c2cccc3c2Sc2ccccc2S3)oc(N2CCOCC2)c1 + O=C(c1cc(Cc2n[nH]c(=O)c3ccccc23)ccc1F)N1CCN(C(=O)C2CC2)CC1 [Olaparib] (partner 8 µM)	0.815

Next compound, please.
Incoming: Form field - read-out: relative viability; system: NCI-H1793; submitted item: O=c1cc(-c2cccc3c2Sc2ccccc2S3)oc(N2CCOCC2)c1 + CC1(C)CCC(c2ccc(Cl)cc2)=C(CN2CCN(c3ccc(C(=O)NS(=O)(=O)c4ccc(N[C@H](CCN5CCOCC5)CSc5ccccc5)c(S(=O)(=O)C(F)(F)F)c4)cc3)CC2)C1 [Navitoclax] (partner 0.5 µM)
Outgoing: 0.307
